src = ChEMBL document CHEMBL6096629

Can you tell me pIC50 for the items I'm about to list?
- Test system: NCI-H2228
- protocol-text: Antiproliferative activity against human NCI-H2228 cells incubated for 24 hrs by MTT assay
- Assay type: functional, cell-based
- condition-notes: NCI-H2228, 24 h
Numbers only, as −log10 of the molar value.

Record excerpt, results attached:
| mol-smiles | reported-measurement |
| --- | --- |
| CCNNC(=O)CCCCn1c2cc3c(cc2c2[nH]c(=O)c4ccccc4c21)OCO3 | 5.62 |
| CCCNNC(=O)c1ccc(Cn2c3cc4c(cc3c3[nH]c(=O)c5ccccc5c32)OCO4)cc1 | 5.66 |
| CCCCNNC(=O)CCCCn1c2cc3c(cc2c2[nH]c(=O)c4ccccc4c21)OCO3 | 5.66 |
| CCCNNC(=O)CCCCn1c2cc3c(cc2c2[nH]c(=O)c4ccccc4c21)OCO3 | 5.93 |
| CCCNNC(=O)CCCCCn1c2cc3c(cc2c2[nH]c(=O)c4ccccc4c21)OCO3 | 5.55 |
| O=C(CCCCCCCn1c2cc3c(cc2c2ncc4ccccc4c21)OCO3)NO | 5.34 |

Proceed to the following item.
Given the compound CCc1c2c(nc3ccc(OC(=O)N4CCC(N5CCCCC5)CC4)cc13)-c1cc3c(c(=O)n1C2)COC(=O)[C@]3(O)CC , what is its reported pIC50?
5.46
